Quick reference for IC50 among some molecules
# test_system: Ubiquitin-conjugating enzyme E2 N (Homo sapiens);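 further: Dose-response confirmation in a TR-FRET assay detecting UBC13-driven polyubiquitin chain formation, inhibition measured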
# Sequence (P61088 whole entry): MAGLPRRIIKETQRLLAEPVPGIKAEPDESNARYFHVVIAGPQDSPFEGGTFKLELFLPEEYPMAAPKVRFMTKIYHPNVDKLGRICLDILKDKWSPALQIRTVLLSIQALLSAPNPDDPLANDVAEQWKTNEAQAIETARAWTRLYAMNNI
# Assay type: functional
Activity calls are given as the source filed them.
recorded_endpoint: IC50

INSERT INTO assay_data (molecule, recorded_endpoint, result) VALUES
  ('CC1(C)Cc2c(c(N3CCOCC3)nc3sc4c(=O)nc[nH]c4c23)CS1', 'IC50', '> 20 µM (inactive)'),
  ('CCC(C)(C)c1ccc(OCCCC[n+]2ccc(C)cc2)c(C(C)(C)CC)c1', 'IC50', '12.6 µM (active)'),
  ('O=c1cc(CO)oc(C(Nc2cccc([N+](=O)[O-])c2)c2ccccn2)c1O (stereo not given)', 'IC50', '> 20 µM (inactive)'),
  ('CC(=O)Nc1ccc2c(c1)C(=O)N(c1cccc(C)c1)C2=O', 'IC50', '> 20 µM (inactive)'),
  ('O=C(CCNC(=O)Cn1ccc2ccccc2c1=O)NCCN1CCN(c2cccc(Cl)c2)CC1', 'IC50', '8.08 µM (active)');

====

# test_system: Cytochrome P450 3A4 (Homo sapiens);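 further: confirmatory qHTS run detecting inhibitors and substrates of CYP3A4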
# Sequence (P08684 whole entry): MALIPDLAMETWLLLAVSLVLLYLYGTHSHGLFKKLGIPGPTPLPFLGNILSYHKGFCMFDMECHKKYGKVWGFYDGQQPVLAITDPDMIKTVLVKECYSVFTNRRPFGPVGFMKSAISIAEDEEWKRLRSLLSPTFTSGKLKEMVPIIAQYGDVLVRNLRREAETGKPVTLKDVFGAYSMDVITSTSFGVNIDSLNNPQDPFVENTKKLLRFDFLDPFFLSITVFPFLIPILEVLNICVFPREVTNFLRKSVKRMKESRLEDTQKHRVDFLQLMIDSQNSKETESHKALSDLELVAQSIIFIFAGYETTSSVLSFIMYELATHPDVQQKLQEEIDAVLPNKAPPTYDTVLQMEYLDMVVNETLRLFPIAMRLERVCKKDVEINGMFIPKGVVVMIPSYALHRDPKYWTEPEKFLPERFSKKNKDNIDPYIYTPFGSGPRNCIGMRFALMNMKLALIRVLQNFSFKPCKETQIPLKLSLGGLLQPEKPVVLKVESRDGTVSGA
# experimental_setup: Potency
Collected AC50 values appear next to each entry.
recorded_endpoint: AC50

INSERT INTO assay_data (compound, result) VALUES
  ('CCCCNc1nc(C)nc2c1nc(-c1ccccc1)n2CCCN(CC)CC', '25.1 µM (inconclusive)'),
  ('COC1=CC(=O)C(O)=C/C1=C\C=C\c1ccccc1 [OBTUSAQUINONE]', '25.1 µM (inconclusive)'),
  ('CCN(CC)CCn1c(-c2ccccc2)nc2c(NC3CCCCC3)nc(C)nc21', '15.8 µM (inconclusive)'),
  ('CCN1/C(=C/C(C)=O)Sc2ccc(OC)cc21', '25.1 µM (inconclusive)'),
  ('C[C@@H]1CC2(OC3C[C@@]4(C)C5=CC[C@H]6C(C)(C)C(O[C@@H]7OC[C@@H](O)[C@H](O)[C@H]7O)CC[C@@]67C[C@@]57CC[C@]4(C)C31)OC(O)C1(C)OC21 (stereo not given in full)', '5.01 µM (inconclusive)'),
  ('Nc1cc(Cl)c([N+](=O)[O-])cc1O', '31.6 µM (inconclusive)'),
  ('O=P(N[C@@H](c1ccccc1)[C@@H]1C[C@H]1CO)(c1ccccc1)c1ccccc1', '15.8 µM (inconclusive)'),
  ('COc1cc(-c2coc3cc(OCc4ccccc4)c(OC)c(O)c3c2=O)cc(O)c1OC [IRIGENIN, 7-BENZYL ETHER]', '15.8 µM (inconclusive)'),
  ('CC(=O)OC1C2C(OC(=O)Cc3ccccc3)C(C)CC2(OC(C)=O)C(=O)/C(C)=C/C2C(CC[C@@]13CO3)C2(C)C (stereo not given in full)', '3.98 µM (inconclusive)'),
  ('COC(=O)CNC(=O)C1(C)C=CC2(CCCCC2)N1C(C)=O (stereo not given)', '25.1 µM (inconclusive)');

====

Quick reference for EC50 among some compounds
# test_system: Endoribonuclease toxin MazF (Escherichia coli K-12)
# Sequence (P0AE70 whole entry): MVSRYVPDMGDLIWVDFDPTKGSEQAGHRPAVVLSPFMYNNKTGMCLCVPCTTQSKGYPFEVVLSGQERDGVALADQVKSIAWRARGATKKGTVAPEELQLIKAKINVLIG
# protocol: activation of MazEF endoribonuclease cleavage – biochemical, fluorescence, single-stranded RNA substrate, uHTS hits, dose response (AID 588481)
# Type: functional
The source made the active and inactive calls.
recorded_endpoint: EC50

INSERT INTO measurements (structure, test_system, recorded_endpoint, result) VALUES
  ('CCCCN1CC(=O)N2[C@@H]3c4cc(Br)ccc4OC[C@@H]3[C@H](C(=O)OCC)[C@]2(C)C1=O', 'Endoribonuclease toxin MazF (Escherichia coli K-12)', 'EC50', '> 99 µM (inactive)'),
  ('CCOC(=O)[C@H]1[C@H]2COc3ccccc3[C@@H]2N2C(=O)CN(Cc3ccc(C)cc3)C(=O)[C@@]12C', 'Endoribonuclease toxin MazF (Escherichia coli K-12)', 'EC50', '> 99 µM (inactive)'),
  ('O=C1/C(=C/Nc2ccccc2O)c2ccccc2C(=O)N1c1nccs1', 'Endoribonuclease toxin MazF (Escherichia coli K-12)', 'EC50', '> 99 µM (inactive)'),
  ('N#Cc1cc2ccccc2nc1SCC(=O)Nc1ccccc1N1CCOCC1', 'Endoribonuclease toxin MazF (Escherichia coli K-12)', 'EC50', '17.5 µM (active)'),
  ('CC(=O)c1sc2nc(-c3cccs3)cc(C(F)(F)F)c2c1N', 'Endoribonuclease toxin MazF (Escherichia coli K-12)', 'EC50', '> 99 µM (inactive)'),
  ('COc1cc(C(=O)Oc2cc(N)n(S(=O)(=O)c3ccc(F)cc3)n2)cc(OC)c1OC', 'Endoribonuclease toxin MazF (Escherichia coli K-12)', 'EC50', '14.8 µM (active)');

====

# test_system: Aminopeptidase N (Plasmodium falciparum FcB1/Columbia, UniProt O96935)
# Sequence (O96935 whole entry): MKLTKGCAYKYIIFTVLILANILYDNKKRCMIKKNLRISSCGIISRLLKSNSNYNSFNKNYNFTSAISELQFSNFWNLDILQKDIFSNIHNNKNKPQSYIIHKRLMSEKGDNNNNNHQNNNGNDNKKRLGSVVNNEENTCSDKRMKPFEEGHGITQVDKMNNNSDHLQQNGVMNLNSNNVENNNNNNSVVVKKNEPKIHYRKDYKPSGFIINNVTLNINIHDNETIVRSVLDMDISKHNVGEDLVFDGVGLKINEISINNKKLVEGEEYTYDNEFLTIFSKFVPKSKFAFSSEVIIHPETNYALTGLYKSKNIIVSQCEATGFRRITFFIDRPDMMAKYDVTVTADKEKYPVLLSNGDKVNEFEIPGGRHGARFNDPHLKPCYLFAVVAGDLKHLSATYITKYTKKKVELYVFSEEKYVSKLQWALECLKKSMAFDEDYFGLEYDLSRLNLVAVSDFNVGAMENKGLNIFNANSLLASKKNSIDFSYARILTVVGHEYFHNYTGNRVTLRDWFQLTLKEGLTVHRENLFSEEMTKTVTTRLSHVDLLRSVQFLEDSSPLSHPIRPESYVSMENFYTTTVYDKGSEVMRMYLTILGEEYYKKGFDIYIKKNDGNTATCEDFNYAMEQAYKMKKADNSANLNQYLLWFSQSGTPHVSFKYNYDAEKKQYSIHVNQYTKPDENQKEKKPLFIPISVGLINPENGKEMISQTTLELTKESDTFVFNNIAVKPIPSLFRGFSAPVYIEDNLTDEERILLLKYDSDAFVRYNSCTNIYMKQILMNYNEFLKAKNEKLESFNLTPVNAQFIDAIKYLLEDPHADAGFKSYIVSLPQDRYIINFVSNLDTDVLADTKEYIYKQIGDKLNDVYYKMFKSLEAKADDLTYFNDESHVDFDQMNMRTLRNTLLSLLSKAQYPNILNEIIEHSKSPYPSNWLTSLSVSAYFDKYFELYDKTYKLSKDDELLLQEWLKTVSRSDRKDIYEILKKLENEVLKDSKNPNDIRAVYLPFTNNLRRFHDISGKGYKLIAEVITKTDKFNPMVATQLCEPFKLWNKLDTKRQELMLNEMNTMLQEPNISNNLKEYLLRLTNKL
# protocol: malaria alanyl aminopeptidase activity blockers – biochemical, fluorogenic H-Leu-NHMec substrate, 1536-well (AID 1445)
# Design: species or system Plasmodium falciparum 3D7, 3D7
Active and inactive are the calls of the source.
Parameter IC50: see the listing below.
recorded_endpoint: IC50

INSERT INTO assay_data (compound, result) VALUES
  ('O=C(Cc1ccc(S(=O)(=O)N2CCOCC2)s1)NCCC(c1ccccc1)c1ccccc1', '2.76 µM (active)'),
  ('Cc1c(CCC(=O)O)c(=O)oc2cc3occ(-c4ccc(F)cc4)c3cc12', '16.3 µM (active)'),
  ('O=C(O)C(Cc1ccccc1)N1C(=O)/C(=C/c2cccc3ccccc23)SC1=S (centres undefined)', '14.9 µM (active)'),
  ('O=C(O)c1ccccc1-c1ccccc1C(=O)Nc1cccc(-c2nc3ccccc3o2)c1', '16.4 µM (active)');

====

# test_system: Cytochrome P450 2C19 (Homo sapiens)
# Sequence (P33261 whole entry): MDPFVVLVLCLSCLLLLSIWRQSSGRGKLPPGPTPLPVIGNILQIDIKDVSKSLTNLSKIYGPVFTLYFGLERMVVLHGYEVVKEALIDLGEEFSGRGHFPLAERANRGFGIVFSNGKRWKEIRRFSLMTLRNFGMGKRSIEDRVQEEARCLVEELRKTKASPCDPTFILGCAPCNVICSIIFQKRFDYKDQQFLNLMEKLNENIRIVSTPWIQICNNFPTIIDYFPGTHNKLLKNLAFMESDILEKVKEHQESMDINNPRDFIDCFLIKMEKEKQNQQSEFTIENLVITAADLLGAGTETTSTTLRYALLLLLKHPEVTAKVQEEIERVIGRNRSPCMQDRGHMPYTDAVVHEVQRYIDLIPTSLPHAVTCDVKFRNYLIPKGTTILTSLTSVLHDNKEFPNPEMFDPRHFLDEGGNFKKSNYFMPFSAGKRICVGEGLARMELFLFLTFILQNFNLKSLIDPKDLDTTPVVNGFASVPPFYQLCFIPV
# protocol: Cytochrome panel assay with activity outcomes. Panel member name: p450-cyp2c19 Compounds with AC50 equal or less than 10 uM are considered active
# Format: functional
recorded_endpoint: AC50

INSERT INTO results (molecule, result) VALUES
  ('CS(=O)(=O)N1CCC2(CCN(c3cccc(-c4ccccc4)c3)CC2)CC1', 'inconclusive'),
  ('CCC(=O)Nc1cccc(NC(=O)c2cccc([N+](=O)[O-])c2)c1', 'inconclusive'),
  ('CCN1CCN(C(=O)C2c3cc(OC)c(OC)cc3C(=O)N3CCc4ccccc4C23)CC1 (centres undefined)', 'inconclusive'),
  ('CC(C)CNC(=O)O', 'inconclusive');

====

Entries and their CC50
# protocol: THP-1 cell cytotoxicity, dose response, cytotoxicity control for non-replicating M. tuberculosis project (AID 489025)
# Assay type: functional
Activity calls are given as the source filed them.
recorded_endpoint: CC50

INSERT INTO assay_data (compound, recorded_endpoint, result) VALUES
  ('CC1(O)CC(c2ccc(Cl)cc2)=NN1C(=O)c1ccc([N+](=O)[O-])cc1 (centres undefined)', 'CC50', '15.5 µM (active)'),
  ('C/C(=N\NC(=O)COc1cccc(C)c1)c1ccc2ccccc2c1O', 'CC50', '8.95 µM (active)'),
  ('CCOC(=O)Nc1ccc2c(c1)N(C(=O)CCN1CCOCC1)c1ccccc1[S+]2[O-] (centres undefined)', 'CC50', '26.7 µM (active)'),
  ('COC(=O)C1=C(C)N(CC2CC2)C(NCc2cccc(Cl)c2)=N[C@H]1c1ccccc1', 'CC50', '22.5 µM (active)');

====

# protocol: HIV-1 AD8 envelope cell-cell fusion blockers – cherry-pick, dose response (AID 652062);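 further: luciferase signal from cell-cell fusion driven by HIV-1 clade B AD8 Env; potency is for inhibitors of fusion seen as a drop in luminescence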
# Type: functional, cell-based
The source made the active and inactive calls.
Measured AC50 accompanies every entry in the list below.
recorded_endpoint: AC50

INSERT INTO assay_data (compound, recorded_endpoint, result) VALUES
  ('C[C@H](CO)N1C[C@H](C)[C@H](CN(C)Cc2ccc(Cl)c(Cl)c2)Oc2c(NS(=O)(=O)c3ccc(Cl)cc3)cccc2C1=O', 'AC50', '42.9 µM (active)'),
  ('O=C(NC1CCCCC1)C(c1ccc(Cl)cc1)N(C(=O)c1cnccn1)c1ccc2c(c1)OCO2 (centres undefined)', 'AC50', '1.95 µM (active)'),
  ('CCCCOc1ccc(S(=O)(=O)Nc2cccnc2)cc1', 'AC50', '7.89 µM (active)'),
  ('COc1ccc(C(=O)NCCc2ccc(Cl)cc2)cc1S(=O)(=O)N1CCCCC1C (centres undefined)', 'AC50', '11.4 µM (active)');

====

# test_system: Zinc finger protein mex-5 (Caenorhabditis elegans)
# Sequence (Q9XUB2 whole entry): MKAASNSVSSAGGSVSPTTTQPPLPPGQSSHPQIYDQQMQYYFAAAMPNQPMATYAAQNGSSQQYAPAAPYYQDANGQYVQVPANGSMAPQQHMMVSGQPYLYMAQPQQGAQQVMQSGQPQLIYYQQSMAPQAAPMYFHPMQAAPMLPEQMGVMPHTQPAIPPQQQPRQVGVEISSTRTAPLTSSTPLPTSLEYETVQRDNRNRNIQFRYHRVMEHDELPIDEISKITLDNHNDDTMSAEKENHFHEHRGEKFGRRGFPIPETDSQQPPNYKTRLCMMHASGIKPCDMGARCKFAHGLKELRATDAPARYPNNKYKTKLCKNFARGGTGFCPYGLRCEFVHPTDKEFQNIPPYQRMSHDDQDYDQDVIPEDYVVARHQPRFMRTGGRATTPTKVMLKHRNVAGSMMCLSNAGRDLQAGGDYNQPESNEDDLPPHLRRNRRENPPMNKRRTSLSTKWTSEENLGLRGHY
# protocol: potency of MEX-5 RNA-binding blockers – biochemical, C. elegans, fluorescence polarization, dose response (AID 1960)
The source made the active and inactive calls.
Each record here notes measured EC50.
recorded_endpoint: EC50

INSERT INTO results (compound, test_system, result) VALUES
  ('O=C1c2ccccc2C(=O)c2c1cccc2N(CCO)CCO', 'Zinc finger protein mex-5 (Caenorhabditis elegans)', '17 µM (active)'),
  ('CCC(C)[C@@H](N)C(=O)N/N=C/c1cccc2nccnc12 (stereo partly specified)', 'Zinc finger protein mex-5 (Caenorhabditis elegans)', '> 300 µM (not active)'),
  ('Cc1ccc(NC(=O)c2sc3nc4c(c(-c5ccco5)c3c2N)CCC4)cc1', 'Zinc finger protein mex-5 (Caenorhabditis elegans)', '2.85 µM (active)'),
  ('C=CCn1c(=O)/c(=C/c2ccc(C)o2)s/c1=C(/C#N)C(=O)c1ccccc1', 'Zinc finger protein mex-5 (Caenorhabditis elegans)', '> 300 µM (inconclusive)'),
  ('CC(=O)c1sc2nc(-c3cccs3)cc(C(F)(F)F)c2c1N', 'Zinc finger protein mex-5 (Caenorhabditis elegans)', '> 300 µM (not active)'),
  ('N#C/C(=C(/O)c1cc2ccccc2o1)c1nc2ccccc2s1', 'Zinc finger protein mex-5 (Caenorhabditis elegans)', '> 300 µM (not active)'),
  ('N#CC1=C(N)OC2=C(C(=O)CCC2)C1c1ccc2c(c1)OCO2 (stereo unspecified)', 'Zinc finger protein mex-5 (Caenorhabditis elegans)', '> 300 µM (not active)'),
  ('CC1N(C)c2cccc3cccc(c23)N1C', 'Zinc finger protein mex-5 (Caenorhabditis elegans)', '> 300 µM (inconclusive)'),
  ('CC1(OC(=O)c2ccc(Cl)nc2)C(=O)C=C2C=C(c3ccsc3)OC=C2C1=O (stereo unspecified)', 'Zinc finger protein mex-5 (Caenorhabditis elegans)', '41.9 µM (active)'),
  ('CC(=O)c1ccc2cccc3c2c1NC(C)=N3', 'Zinc finger protein mex-5 (Caenorhabditis elegans)', '6.57 µM (active)'),
  ('O=C(C1=C(O)C(=O)N(c2ncccn2)C1c1cccs1)c1ccco1 (stereo unspecified)', 'Zinc finger protein mex-5 (Caenorhabditis elegans)', '31.5 µM (active)');
